System: SF-295 CNS
Test: NCI tumour cell line growth inhibition, 384-well format
Each entry below carries its recorded TGI.
measured property: TGI (µM)

>>> measured_result("C=CC(=O)N1CCN(CCCn2c(=O)c(-c3c(Cl)c(OC)cc(OC)c3Cl)cc3cnc(NC)nc32)CC1")
38.1
>>> measured_result("COc1cccc2[nH]c3c4c(c5c(c3c12)C(=O)N(CN1CCN(C)CC1)C5=O)CCC4")
27.2
>>> measured_result("CNC(=O)c1ccccc1Nc1cc(Nc2ccc(N3CCOCC3)cc2OC)ncc1C(F)(F)F")
38.7
